Reference source for all entries: paper PMC6557900

target: SOCS2-ElonginB-ElonginC complex, wild-type (human | , UniProt O14508 32-198; Q15370 1-104; Q15369 17-112); assay: 19F ligand-observed CPMG NMR displacement assay; peptide (GHR 10 μM, EpoR 50 μM) displaces the fluorinated pY analog spy molecule 3 (100 μM) from SBC (5 μM); 20 mM HEPES pH 8, 50 mM NaCl, 1 mM DTT, 20% D2O, 298 K; settings: both partners purified
Sequence (O14508 32-198, chain 1 of 3): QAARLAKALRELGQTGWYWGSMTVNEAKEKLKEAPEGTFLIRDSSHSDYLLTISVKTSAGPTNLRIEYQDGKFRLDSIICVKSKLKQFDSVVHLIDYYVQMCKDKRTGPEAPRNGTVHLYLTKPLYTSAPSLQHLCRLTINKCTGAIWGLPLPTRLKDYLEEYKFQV
Sequence (Q15370 1-104, chain 2 of 3): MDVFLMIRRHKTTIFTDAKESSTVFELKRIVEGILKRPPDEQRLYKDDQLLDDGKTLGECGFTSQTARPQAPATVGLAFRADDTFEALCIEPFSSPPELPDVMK
Sequence (Q15369 17-112, chain 3 of 3): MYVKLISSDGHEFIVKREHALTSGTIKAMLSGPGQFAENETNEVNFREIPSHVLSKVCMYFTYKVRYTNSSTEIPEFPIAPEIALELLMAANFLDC
Where no end group is shown, it is not given here. [ ]: non-standard residue; d: D form. pY = N[C@@H](Cc1ccc(OP(=O)(O)O)cc1)C(=O)O
Assay metric: Ki (µM)
Write the number in µM without appending the unit.

>>> meas_value("PVPD[pY]TSAHIV-NH2 [GHR_pY595 peptide, alanine at pY(+3)]")
3.4
>>> meas_value("ASFE[pY]TALDPS-NH2 [EpoR_pY426 peptide, alanine at pY(+2)]")
17.2
>>> meas_value("PVPD[pY]TSIAIV-NH2 [GHR_pY595 peptide, alanine at pY(+4)]")
18.5
>>> meas_value("PRPD[pY]TSIHIV-NH2 [GHR_pY595 peptide V(−3)R]")
20.6

Ki for PVPD[pY]ASIHIV-NH2 [GHR_pY595 peptide, alanine at pY(+1)] is 0.5

Entry PAPD[pY]TSIHIV-NH2 [GHR_pY595 peptide, alanine at pY(−3)] — recorded Ki = 3.4

// field: Ki; key: ASFA[pY]TILDPS-NH2 [EpoR_pY426 peptide, alanine at pY(−1)] ; value = 23.5
